Origin of the recorded values: PubChem BioAssay AID1851

# measurementTarget: Cytochrome P450 1A2 (Homo sapiens) (UniProt P05177)
# Sequence (P05177 whole entry, looked up): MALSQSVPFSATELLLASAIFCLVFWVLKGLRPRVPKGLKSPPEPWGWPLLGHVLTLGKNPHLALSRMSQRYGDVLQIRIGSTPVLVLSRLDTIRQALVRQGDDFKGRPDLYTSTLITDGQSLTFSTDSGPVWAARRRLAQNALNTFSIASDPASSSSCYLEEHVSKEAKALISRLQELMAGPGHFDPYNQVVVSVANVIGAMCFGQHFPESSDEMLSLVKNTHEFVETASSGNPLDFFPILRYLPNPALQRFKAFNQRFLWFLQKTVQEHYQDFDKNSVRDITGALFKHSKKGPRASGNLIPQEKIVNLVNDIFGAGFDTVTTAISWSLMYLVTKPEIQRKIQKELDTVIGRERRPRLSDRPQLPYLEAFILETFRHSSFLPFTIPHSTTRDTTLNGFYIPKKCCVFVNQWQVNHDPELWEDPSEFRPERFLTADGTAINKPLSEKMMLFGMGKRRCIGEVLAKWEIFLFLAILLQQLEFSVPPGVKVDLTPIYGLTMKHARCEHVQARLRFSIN
# methodDescription: Cytochrome panel assay with activity outcomes
# testSettings: recombinant CYP, pro-luciferin dealkylation, luminescence, p450-cyp1a2; series mostly up to 57.1 µM
Hit rate of the full screen: of about 16,000 compounds, about 5,700 (36%) were called active. Another 24% or so got no clear call; they are omitted. Calls come from the whole dose curve; as a rule, active = well fitted curve in the direction sought with a large enough effect; inconclusive = small, poorly fitted or top-dose-only effect, or effect the other way; inactive = no such curve, though single readings can be large or run the other way. The list shows a part of the results.
Returns: one label drawn from active, inactive

> print(dat)
                                   molecule  classname
1  COc1ccc(Oc2ncc3nc(C)c(=O)n(Cc4cccs4)c3n2)cc1     active
2  CN(C)C(=O)c1ccc(-n2nc(C(F)(F)F)c3c2CCCC3)cc1     active
3     CCN(Cc1ccccc1)Cc1cccc([N+](=O)[O-])c1     active
4            COc1ncc2ncc(=O)n(Cc3cccs3)c2n1     active
5        N#Cc1ccc(-c2ccc(F)cc2)nc1Sc1ccccc1     active
6  Cc1ccc2nc(SCc3nc4c(cnn4-c4ccccc4)c(=O)[nH]3)[nH]c2c1     active

Which outcome was assigned to "Cc1nc(SCC(=O)Nc2c(C)nn(C)c2C)c2cnn(-c3ccccc3)c2n1" in this test? inactive

Now the same for "Cc1nc(N=Nc2ccc(S(=O)(=O)O)cc2S(=O)(=O)O)c(COP(=O)(O)O)c(C=O)c1O" inactive

Now the same for CCCCCCCCN1C(=O)N(C)C(N(O)C(=O)NC)C1(C)C (stereo unspecified) inactive

Now the same for "O=c1cc(O)cc(/C=C\c2ccc(O)c(O)c2)o1" inactive

Now the same for "Cc1ccc(Sc2nc(-c3ccccc3)ccc2C#N)cc1" active

----------
# measurementTarget: Cytochrome P450 1A2 (Homo sapiens)
# methodDescription: Cytochrome panel assay with activity outcomes
# testSettings: recombinant CYP, pro-luciferin dealkylation, luminescence, p450-cyp1a2; series mostly up to 57.1 µM
Screen size: about 16,000 compounds; about 5,700 (36%) were called active. Not shown: some 24% with an inconclusive outcome. Calls follow the shape of the dose curve; as a rule, active = well fitted curve in the direction sought with a large enough effect; inconclusive = small, poorly fitted or top-dose-only effect, or effect the other way; inactive = no such curve, though single readings can be large or run the other way. This is one part of the list.
Returns: one label drawn from 1 (yes) for active, 0 (no) for inactive

> print(dat)
                                  smilesstr  classname
1  Cn1cc(-c2nc3cnc(N4CCNCC4)nc3n(-c3ccccc3)c2=O)c2ccccc21    1 (yes)
2  CCN(CC)CC[n+]1ccc2c(C)c3[nH]c4ccc(O)cc4c3c(C)c2c1    1 (yes)
3      COC(=O)c1sc2ncccc2c1OCc1c(Cl)cccc1Cl    1 (yes)
4  Cc1ccc(/C=N\NC(=O)c2cc(OCC(F)(F)F)ccc2OCC(F)(F)F)cc1     0 (no)
5  COc1ccc(-n2c(=O)c(-c3cn(C)c4ccccc34)nc3cnc(N4CCNCC4)nc32)cc1    1 (yes)

Which outcome was assigned to "C=C(C)COc1ccc(-c2n[nH]c(C)c2-c2ccc(OC)cc2)c(O)c1" in this test? 1 (yes)

Now the same for "CC(C)COC[C@H](CN(Cc1ccccc1)c1ccccc1)N1CCCC1" 0 (no)

Now the same for "O=C(Cn1c(SCC(=O)N2CCc3ccccc3C2)nc2ccccc21)NC1CCCC1" 0 (no)

Now the same for "CS(=O)(=O)N1CCC[C@@]2(CCN(c3ncccn3)C2)C1" 0 (no)

Now the same for "C#C[C@H](N)CCC(=O)O" 0 (no)

Now the same for "CCN(CC)CC[n+]1ccc2c(C)c3[nH]c4ccccc4c3c(C)c2c1" 1 (yes)

----------
Measured activity, negative = inhibition values are reported for all entries that follow.
# measurementTarget: Cytochrome P450 1A2 (Homo sapiens)
# methodDescription: Cytochrome panel assay with activity outcomes; for activity, negative = inhibition: % is set by controls: 0 for no effect and ±100 for the full control effect
# testSettings: recombinant CYP, pro-luciferin dealkylation, luminescence, p450-cyp1a2; series mostly up to 57.1 µM
# Protocol: The P450 gene superfamily is involved in the metabolism and clearance of xenobiotics. This assay used various human CYP P450 isozymes to measure the dealkylation of various pro-luciferin substrates to luciferin. The luciferin is then measured by luminescence after the addition of a luciferase detection reagent. […] Inhibitors and some substrates limit the production of luciferin, and decrease measured luminescence. […] 8, Detection, 1 sec, ViewLux luminescent read […]
The whole screen tested about 16,000 compounds, of which about 5,700 (36%) were called active. Another 24% or so got no clear call; they are omitted. The list shows a part of the results.

Worked examples, 5 compounds total:
smilesStr	measurementTarget	activity, negative = inhibition
CC(=O)OC[C@@H]1O[C@@H](O/N=C2/C[C@@H](O)[C@@H](O)[C@@H]3[C@@H]4C(=O)N(C5CCCCC5)C(=O)[C@H]4CC[C@H]23)[C@H](OC(C)=O)[C@H](OC(C)=O)[C@@H]1OC(C)=O	Cytochrome P450 1A2 (Homo sapiens)	-1.1% [at 11.4 µM] (inactive)
CC(C)=NO[C@@H](C)c1cc(-c2c(C)cc(C)cc2C)no1	Cytochrome P450 1A2 (Homo sapiens)	-3.7% [at 11.4 µM] (inactive)
Cn1c(C[C@@H](O)c2nc3ccccc3n2C)nc2ccccc21	Cytochrome P450 1A2 (Homo sapiens)	-2.56% [at 2.29 µM] (inactive)
CN1CCCN(C)C1c1cc([N+](=O)[O-])ccc1O	Cytochrome P450 1A2 (Homo sapiens)	-14.3% [at 11.4 µM] (inactive)
CC(C)CO/N=C1/[C@H]2O[C@@H]2[C@@H](O)[C@H]2[C@H]1CCn1c(=O)n(-c3ccccc3)c(=O)n12	Cytochrome P450 1A2 (Homo sapiens)	-6.37% [at 11.4 µM] (inactive)

Here is another compound to look at.
For the compound "Cc1[nH]c(N)nc(=S)c1CCC(=O)O" , what activity, negative = inhibition is on record? -11.2% [at 11.4 µM] (inactive)

----------
# measurementTarget: Cytochrome P450 1A2 (Homo sapiens) (UniProt P05177)
# methodDescription: Cytochrome panel assay with activity outcomes
# testSettings: recombinant CYP, pro-luciferin dealkylation, luminescence, p450-cyp1a2; series mostly up to 57.1 µM
Screen size: about 16,000 compounds; about 5,700 (36%) were called active. Not shown: some 24% with an inconclusive outcome. The list shows a part of the results.
assayEndpoint: AC50

Worked examples, 5 compounds total:
> print(dat)
                                   compound  assayendpoint           observed
1  C[C@H](NCCc1ccc(O)cc1)[C@@H](O)c1ccc(O)cc1           AC50           inactive
2  COc1cccc2c1OC[C@@H](CO)[C@H]2N(C)C(=O)Nc1ccc(Cl)cc1Cl           AC50           inactive
3  CS(=O)(=O)Nc1cccc(-c2nc(Nc3ccc(F)cc3)c3ccccc3n2)c1           AC50  0.794 µM (active)
4         O=C1NC(=O)C(c2ccccc2)(c2ccccc2)N1           AC50           inactive
5            CC(=O)c1sc(N)c(C(=O)OC(C)C)c1C           AC50   3.55 µM (active)

Under Cytochrome P450 1A2 (Homo sapiens) (UniProt P05177): AC50 value of "Nc1ccc(S(=O)(=O)Nc2ncccn2)cc1" ? inactive

Now the same for "CCOc1ccc(-c2nnc3n2N=C(c2ccc(OC)cc2)CS3)cc1" 3.55 µM (active)

Now the same for O=C1c2ccccc2NC(c2ccc(Cl)cc2Cl)N1O (stereo not drawn) 6.31 µM (active)

Now the same for "O=S(=O)(Nc1ccc(Cc2ccncc2)cc1)c1ccc(Br)cc1" 0.0447 µM (active)

----------
# measurementTarget: Cytochrome P450 1A2 (Homo sapiens) (UniProt P05177)
# methodDescription: Cytochrome panel assay with activity outcomes
# testSettings: recombinant CYP, pro-luciferin dealkylation, luminescence, p450-cyp1a2; series mostly up to 57.1 µM
Among all 16,000 compounds or so, about 5,700 (36%) were called active. Inconclusive results (about 24%) are left out. The call rests on the fitted dose curve; in most records, active means well fitted curve in the direction sought with a large enough effect; inconclusive means small, poorly fitted or top-dose-only effect, or effect the other way; inactive means no such curve, though single readings can be large or run the other way. Some of the results follow.
Returns: one label drawn from active, inactive

Example results:
> print(dat)
                                   compound  classname
1                CCCC(=O)Nc1nc(C(=O)OCC)cs1     active
2  COc1ccc2c(c1)OC1=C(C(=O)CCC1)C2C1=C(O)CCCC1=O (stereo unspecified)     active
3  Cc1ccc(C(=O)N2CCN(C3c4cccc5cccc(c45)C3NS(=O)(=O)c3ccccc3)CC2)cc1 (stereo unspecified)   inactive

Which outcome was assigned to "Cc1nc2sccc2c(=O)n1-c1cccc(Cl)c1" in this test? active

Now the same for "Cc1ccc(=O)n(-c2ccccc2)c1" active

Now the same for "NCCC(=O)O" inactive

Now the same for "Cc1ccc(C)c(S(=O)(=O)N2CCC(c3nc4c(nnn4Cc4ccc(F)cc4)c(=O)[nH]3)CC2)c1" inactive

Now the same for "CCCC(=O)Nc1c(C)n[nH]c1C" inactive

Now the same for "O=c1c(-c2cc(F)cc(F)c2)nc2cnc(N3CCNCC3)nc2n1C1CC1" active

Now the same for "Cc1cc(N)n2ncc(-c3ccc(Cl)cc3)c2n1" active

Now the same for "O=C1CCCC2=C1C(c1ccc(OS(=O)(=O)c3ccc(Cl)cc3)cc1)C1=C(CCCC1=O)O2" inactive
